The measured values listed here are drawn from a melting point compilation (Tetko et al.).

READOUT TYPE: melting point

COMPOUND: O=C(OCc1ccccc1)N1CCc2n[nH]c(=O)cc2C1
READOUT TYPE: melting point
RESULT: 175 to 177 °C

COMPOUND: NC(CC(=O)N1CCCCC1)=NO
READOUT TYPE: melting point
RESULT: 179 to 181 °C

COMPOUND: CC(Cl)C(=O)NCc1ccc(F)cc1 (configuration not stated)
READOUT TYPE: melting point
RESULT: 90 to 92 °C

COMPOUND: CS(=O)(=O)c1ccc(C(N)=S)cc1
READOUT TYPE: melting point
RESULT: 216 to 218 °C

COMPOUND: CC(=O)N1CCCCC1CC(=O)O (configuration not stated)
READOUT TYPE: melting point
RESULT: 112 to 114 °C

COMPOUND: Nc1ccc(OCC(F)(F)F)cc1
READOUT TYPE: melting point
RESULT: 66 to 68 °C

COMPOUND: O=C1NC(=O)C2(Cc3ccccc3C2)N1
READOUT TYPE: melting point
RESULT: 264 to 266 °C

COMPOUND: O=C(O)c1ccccc1SCc1nnnn1-c1ccccc1
READOUT TYPE: melting point
RESULT: 170 to 174 °C

COMPOUND: Cn1cc(Br)c2cc[nH]c(=O)c21
READOUT TYPE: melting point
RESULT: 195 to 197 °C

COMPOUND: O=C(CCl)Nc1ccccc1OC(F)F
READOUT TYPE: melting point
RESULT: 92 to 94 °C

COMPOUND: COc1cccc(Cl)c1C(=O)O
READOUT TYPE: melting point
RESULT: 140 to 142 °C

COMPOUND: CN(C)C(=O)c1cccc(N)c1
READOUT TYPE: melting point
RESULT: 84 to 86 °C

COMPOUND: NC(=O)c1cccc(NCc2ccc(F)cc2)c1
READOUT TYPE: melting point
RESULT: 136 to 138 °C

COMPOUND: NCc1nncn1-c1ccccc1
READOUT TYPE: melting point
RESULT: 59 to 61 °C

COMPOUND: CN1C(=O)CCC(C(=O)O)C1c1cnn(C)c1 (configuration not stated)
READOUT TYPE: melting point
RESULT: 225 to 227 °C

COMPOUND: Oc1ccc(Cl)cc1-c1cc(-c2ccco2)[nH]n1
READOUT TYPE: melting point
RESULT: 166 to 168 °C

COMPOUND: O=C(O)c1cccn(Cc2ccccc2)c1=O
READOUT TYPE: melting point
RESULT: 129 to 131 °C

COMPOUND: Cc1ccc2c(CC(=O)O)coc2c1
READOUT TYPE: melting point
RESULT: 140 to 142 °C

COMPOUND: NC(=S)c1ccc(NC(=O)c2ccco2)cc1
READOUT TYPE: melting point
RESULT: 258 to 260 °C

COMPOUND: COCCNC(N)=S
READOUT TYPE: melting point
RESULT: 118 to 120 °C

COMPOUND: Cc1ccc(C23CC4CC(CC(C(=O)O)(C4)C2)C3)cc1
READOUT TYPE: melting point
RESULT: 174 to 176 °C

COMPOUND: CCC(=O)c1cnn(C)c1
READOUT TYPE: melting point
RESULT: 44 to 46 °C

COMPOUND: Cc1cc(C)cc(Nc2nnc(SC(C)C(=O)O)s2)c1 (configuration not stated)
READOUT TYPE: melting point
RESULT: 127 to 129 °C

COMPOUND: CN(C)C(C)(C(=O)O)c1ccc(F)cc1 (configuration not stated)
READOUT TYPE: melting point
RESULT: 234 to 236 °C

COMPOUND: Cc1cccc(Oc2ccc(Cl)cc2N)c1
READOUT TYPE: melting point
RESULT: 93 to 97 °C

COMPOUND: CCC(O)(C(N)=O)c1ccc(Br)cc1 (configuration not stated)
READOUT TYPE: melting point
RESULT: 146 to 148 °C

COMPOUND: CC(C)(C)OC(=O)NC1CCCC1CN (configuration not stated)
READOUT TYPE: melting point
RESULT: 99 to 101 °C

COMPOUND: Cc1[nH]c2c(Cl)cccc2c1C=O
READOUT TYPE: melting point
RESULT: 229 to 231 °C

COMPOUND: CC(=O)N1CCCCC1C(=O)O (configuration not stated)
READOUT TYPE: melting point
RESULT: 137 to 139 °C

COMPOUND: O=S(=O)(Cl)Cc1ccc(Cl)nc1
READOUT TYPE: melting point
RESULT: 59 to 61 °C

COMPOUND: Nc1ccc(N2CCC(O)CC2)cc1
READOUT TYPE: melting point
RESULT: 171 to 173 °C

COMPOUND: Cc1nn(C(F)F)c(C)c1CO
READOUT TYPE: melting point
RESULT: 86 to 88 °C

COMPOUND: COC(=O)NCC(=O)O
READOUT TYPE: melting point
RESULT: 93 to 95 °C

COMPOUND: CC(C)C1CNc2ccccc2N1 (configuration not stated)
READOUT TYPE: melting point
RESULT: 73 to 75 °C

COMPOUND: Cc1cccc(-c2nn(-c3ccccc3)cc2C(=O)O)c1
READOUT TYPE: melting point
RESULT: 146 to 148 °C

COMPOUND: CN(C)c1cc(C#N)c2ccccc2n1
READOUT TYPE: melting point
RESULT: 119 to 121 °C

COMPOUND: O=C(O)c1cc(C2CC2)on1
READOUT TYPE: melting point
RESULT: 97 to 99 °C

COMPOUND: CC(O)c1nc2cc(C(F)(F)F)ccc2n1C (configuration not stated)
READOUT TYPE: melting point
RESULT: 99 to 101 °C

COMPOUND: NC(=O)CCc1ccc(F)cc1
READOUT TYPE: melting point
RESULT: 105 to 107 °C

COMPOUND: O=C(O)c1c(F)ccc(S(=O)(=O)Cl)c1F
READOUT TYPE: melting point
RESULT: 107 to 111 °C

COMPOUND: OCCOc1ccccc1O
READOUT TYPE: melting point
RESULT: 99 to 100 °C

COMPOUND: Nc1ccc2nncn2c1
READOUT TYPE: melting point
RESULT: 169 to 171 °C

COMPOUND: Cc1cccc(C2(C(=O)O)CCCC2)c1
READOUT TYPE: melting point
RESULT: 156 to 158 °C

COMPOUND: Cc1ccc(-c2ccsc2C(=O)NN)cc1
READOUT TYPE: melting point
RESULT: 270 to 273 °C

COMPOUND: COc1cc(C#N)ccc1OCC(=O)O
READOUT TYPE: melting point
RESULT: 154 to 156 °C

COMPOUND: CC(C)c1ccc(Cn2nccc2N)cc1
READOUT TYPE: melting point
RESULT: < 17 °C

COMPOUND: O=C(O)c1cnc(Cc2ccccc2)s1
READOUT TYPE: melting point
RESULT: 199 to 201 °C

COMPOUND: Sc1nnc(-c2cccs2)n1-c1ccccc1
READOUT TYPE: melting point
RESULT: 269 to 271 °C

COMPOUND: Cc1ccc(S(=O)(=O)N(C)CC(=O)O)cc1
READOUT TYPE: melting point
RESULT: 228 to 230 °C

COMPOUND: CCOC(=O)Nc1ccc(Br)cc1N
READOUT TYPE: melting point
RESULT: 79 to 81 °C

COMPOUND: O=Cc1cnn(Cc2ccccc2Cl)c1
READOUT TYPE: melting point
RESULT: 54 to 56 °C

COMPOUND: COc1cccc(C(N)=S)c1OC
READOUT TYPE: melting point
RESULT: 146 to 148 °C

COMPOUND: O=C(O)c1cc(O)nc2ccc(S(=O)(=O)N3CCOCC3)cc12
READOUT TYPE: melting point
RESULT: 304 to 306 °C

COMPOUND: COC(=O)c1c[nH]cc1-c1ccc([N+](=O)[O-])cc1
READOUT TYPE: melting point
RESULT: 244 to 246 °C

COMPOUND: NS(=O)(=O)CC(F)(F)F
READOUT TYPE: melting point
RESULT: 97 to 99 °C

COMPOUND: Cc1cccc(C)c1OCCO
READOUT TYPE: melting point
RESULT: 70 to 72 °C

COMPOUND: CC(C)NS(=O)(=O)c1ccc(Cl)c(C(=O)O)c1
READOUT TYPE: melting point
RESULT: 147 to 149 °C
